List of abundance fitness values.
B1: 3'-5' exoribonuclease 1, residues 65 to 114; numbered along this chain, Q8IV48 (parent)
chain: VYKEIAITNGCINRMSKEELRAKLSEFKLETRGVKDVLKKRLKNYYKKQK

# Variants of: B1
# procedureDetails: abundance fitness (aPCA) (normalised: wild type 0, dead -1); higher = more abundant; growth selection in yeast, the domain comes from the species named
# conditionDetails: Homo sapiens
Enter the number alone.

>  <residueString>
VYKEIAITNGCINRMSKEELRAKLSEFKLEGRGVKDVLKKRLKNYYKKQK [T31G]

>  <abundance fitness>
-0.791

$$$$
>  <residueString>
VYKEIAITNGCINRMSKEELYAKLSEFKLETRGVKDVLKKRLKNYYKKQK [R21Y]

>  <abundance fitness>
-0.773

$$$$
>  <residueString>
VYKEIARTNGCINRMSKEELRAKLSEFKLETRGVKDVLKKRLKNYYKKQK [I7R]

>  <abundance fitness>
-0.178

$$$$

# evaluate next
## Task Please report the recorded abundance fitness for VYKEIAITNGCINRMSKEELRAKLSEFKLMTRGVKDVLKKRLKNYYKKQK [E30M] .
## Result -0.685
